molecular target: Aldo-keto reductase family 1 member B1 (Rattus norvegicus); assay: Inhibition of rat aldose reductase activity at 100 uM.
measurement.type: inhibition (%)
Entry rule: numbers only, all in %.

Prompt: Lab request: please report inhibition under test system Aldo-keto reductase family 1 member B1 (Rattus norvegicus) for `CC(=O)Nc1ccc(S(=O)(=O)NCC(=O)O)cc1`
Response: 88

Prompt: Entry `O=C(O)CNS(=O)(=O)c1ccc(N/C(S)=N/c2ccccc2)cc1` please
Response: 65

Prompt: Entry `O=C(O)CNS(=O)(=O)c1ccc(NC(=O)OCc2ccccc2)cc1` please
Response: 82

Prompt: Entry `O=C(O)CNS(=O)(=O)c1ccc(NC(=O)COCc2ccccc2)cc1` please
Response: 79

====

Field: IC50. Provide a value for each of the compounds that follow.
biological target: Aldo-keto reductase family 1 member B1 (Rattus norvegicus)
Entry rule: numbers only, all in µM.

Prompt: Lab request: please report IC50 under test system Aldo-keto reductase family 1 member B1 (Rattus norvegicus) for `O=C(O)CNS(=O)(=O)c1ccc(NC(=O)CCc2ccccc2)cc1`
Response: 11.5

Prompt: Entry `O=C(O)CNS(=O)(=O)c1ccc(NC(=O)OCc2ccccc2)cc1` please
Response: 6.03

Prompt: Entry `O=C(O)CNS(=O)(=O)c1ccc(NC(=O)c2ccccc2)cc1` please
Response: 0.41

Prompt: Entry `O=C(O)CNS(=O)(=O)c1ccc(NC(=O)Nc2ccccc2)cc1` please
Response: 2.75

Prompt: Entry `Nc1ccccc1S(=O)(=O)NCC(=O)O` please
Response: 38

Prompt: Entry `O=C(O)CNS(=O)(=O)c1ccccc1NC(=O)c1ccccc1` please
Response: 78

Prompt: Entry `Nc1cccc(S(=O)(=O)NCC(=O)O)c1` please
Response: 29

Prompt: Entry `O=C(O)CNS(=O)(=O)c1ccc(NC(=O)COc2ccccc2)cc1` please
Response: 2.64

Prompt: Entry `Nc1ccc(S(=O)(=O)NCC(=O)O)cc1` please
Response: 16

Prompt: Entry `O=C(O)CNS(=O)(=O)c1ccc(NC(=O)COCc2ccccc2)cc1` please
Response: 3.5

Prompt: Entry `O=C(O)CNS(=O)(=O)c1cccc(NC(=O)c2ccccc2)c1` please
Response: 7.12

Prompt: Entry `O=C(O)CNS(=O)(=O)c1ccc(NC(=O)Cc2ccccc2)cc1` please
Response: 2.17
